# assayed target: GluN1-1a WT/GluN2B F176A (Rattus norvegicus, UniProt P35439+Q00960, F176A)
# recorded conditions: GluN2B F176A, maximum inhibition fixed to wildtype value
attribute measured: A2, fixed-to-wildtype (*)
I'd appreciate it if you wrote the number followed by its unit.

Field: example entries. Status: answers known.
CC(C(O)c1ccc(O)cc1)N1CCC(Cc2ccccc2)CC1 (stereo not shown) [ifenprodil, reference compound]
94%
C[C@@H]1[C@H](O)c2ccc(O)cc2CCN1CCCCc1ccccc1
97%
Oc1ccc2c(c1)CCN(CCCCc1ccccc1)C[C@@H]2O [compound (R)-1]
93%

So, Oc1ccc2c(c1)CCN(CCCCc1ccccc1)C[C@H]2O [compound (S)-1] ? Its A2, fixed-to-wildtype (*) was 95%

---

Reported p (slope) values are given for each entry in this list.
# assayed target: GluN1-1a L135N/GluN2B WT (Rattus norvegicus, UniProt P35439+Q00960, L135N)
# Sequence (Q00960 27-1482, other chains not shown): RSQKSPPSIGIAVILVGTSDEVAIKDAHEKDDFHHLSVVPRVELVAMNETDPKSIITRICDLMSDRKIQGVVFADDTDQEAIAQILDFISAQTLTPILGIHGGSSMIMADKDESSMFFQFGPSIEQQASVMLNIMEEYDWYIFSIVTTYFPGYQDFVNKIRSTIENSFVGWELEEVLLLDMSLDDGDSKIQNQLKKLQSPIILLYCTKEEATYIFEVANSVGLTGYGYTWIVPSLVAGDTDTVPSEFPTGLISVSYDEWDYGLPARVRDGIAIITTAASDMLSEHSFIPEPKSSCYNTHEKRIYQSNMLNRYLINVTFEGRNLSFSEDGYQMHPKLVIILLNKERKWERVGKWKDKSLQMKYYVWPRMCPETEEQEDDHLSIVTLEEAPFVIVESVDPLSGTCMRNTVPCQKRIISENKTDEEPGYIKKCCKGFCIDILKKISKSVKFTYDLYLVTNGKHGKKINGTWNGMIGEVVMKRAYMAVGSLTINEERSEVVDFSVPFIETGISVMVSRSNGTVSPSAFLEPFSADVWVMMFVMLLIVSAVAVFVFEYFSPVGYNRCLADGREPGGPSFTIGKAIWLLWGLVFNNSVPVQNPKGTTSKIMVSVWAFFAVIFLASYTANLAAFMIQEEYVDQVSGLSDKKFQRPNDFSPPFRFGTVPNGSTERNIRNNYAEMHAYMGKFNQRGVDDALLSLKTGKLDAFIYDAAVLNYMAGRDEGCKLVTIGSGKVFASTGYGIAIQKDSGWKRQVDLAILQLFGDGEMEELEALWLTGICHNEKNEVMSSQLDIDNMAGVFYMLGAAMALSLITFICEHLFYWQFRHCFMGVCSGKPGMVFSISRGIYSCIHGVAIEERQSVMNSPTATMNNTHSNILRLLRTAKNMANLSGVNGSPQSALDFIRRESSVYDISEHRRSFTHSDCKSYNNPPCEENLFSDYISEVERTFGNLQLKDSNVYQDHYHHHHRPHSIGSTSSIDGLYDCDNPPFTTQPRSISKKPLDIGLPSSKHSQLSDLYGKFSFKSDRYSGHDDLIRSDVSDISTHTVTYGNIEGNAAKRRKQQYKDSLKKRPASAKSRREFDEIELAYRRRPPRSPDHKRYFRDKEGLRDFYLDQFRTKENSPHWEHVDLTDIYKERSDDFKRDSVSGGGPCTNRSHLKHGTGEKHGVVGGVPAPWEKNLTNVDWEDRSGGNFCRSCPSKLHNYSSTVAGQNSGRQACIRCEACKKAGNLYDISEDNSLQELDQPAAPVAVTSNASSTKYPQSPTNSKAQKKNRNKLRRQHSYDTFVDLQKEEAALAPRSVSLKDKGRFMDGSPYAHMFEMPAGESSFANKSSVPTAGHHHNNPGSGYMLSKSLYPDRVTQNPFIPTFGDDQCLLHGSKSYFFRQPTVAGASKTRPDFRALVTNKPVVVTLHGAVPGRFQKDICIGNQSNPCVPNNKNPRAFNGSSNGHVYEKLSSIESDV
# recorded conditions: GluN1-1a L135N
Respond with the number and no other words.

Example molecules with recorded p (slope):
Oc1ccc2c(c1)CCN(CCCCc1ccccc1)C[C@H]2O [compound (S)-1]
0.98
C[C@@H]1[C@H](O)c2ccc(O)cc2CCN1CCCCc1ccccc1
0.72
CC(C(O)c1ccc(O)cc1)N1CCC(Cc2ccccc2)CC1 (stereo not shown) [ifenprodil, reference compound]
0.99

Now consider the entry below.
Documented p (slope) of Oc1ccc2c(c1)CCN(CCCCc1ccccc1)C[C@@H]2O [compound (R)-1] : 0.66

---

Catalogue of A2, fixed-to-wildtype (*) readings, one per entry.
# assayed target: GluN1-1a WT/GluN2B F176Y (Rattus norvegicus, UniProt P35439+Q00960, F176Y)
# Sequence (Q00960 27-1482 F176Y, other chains not shown): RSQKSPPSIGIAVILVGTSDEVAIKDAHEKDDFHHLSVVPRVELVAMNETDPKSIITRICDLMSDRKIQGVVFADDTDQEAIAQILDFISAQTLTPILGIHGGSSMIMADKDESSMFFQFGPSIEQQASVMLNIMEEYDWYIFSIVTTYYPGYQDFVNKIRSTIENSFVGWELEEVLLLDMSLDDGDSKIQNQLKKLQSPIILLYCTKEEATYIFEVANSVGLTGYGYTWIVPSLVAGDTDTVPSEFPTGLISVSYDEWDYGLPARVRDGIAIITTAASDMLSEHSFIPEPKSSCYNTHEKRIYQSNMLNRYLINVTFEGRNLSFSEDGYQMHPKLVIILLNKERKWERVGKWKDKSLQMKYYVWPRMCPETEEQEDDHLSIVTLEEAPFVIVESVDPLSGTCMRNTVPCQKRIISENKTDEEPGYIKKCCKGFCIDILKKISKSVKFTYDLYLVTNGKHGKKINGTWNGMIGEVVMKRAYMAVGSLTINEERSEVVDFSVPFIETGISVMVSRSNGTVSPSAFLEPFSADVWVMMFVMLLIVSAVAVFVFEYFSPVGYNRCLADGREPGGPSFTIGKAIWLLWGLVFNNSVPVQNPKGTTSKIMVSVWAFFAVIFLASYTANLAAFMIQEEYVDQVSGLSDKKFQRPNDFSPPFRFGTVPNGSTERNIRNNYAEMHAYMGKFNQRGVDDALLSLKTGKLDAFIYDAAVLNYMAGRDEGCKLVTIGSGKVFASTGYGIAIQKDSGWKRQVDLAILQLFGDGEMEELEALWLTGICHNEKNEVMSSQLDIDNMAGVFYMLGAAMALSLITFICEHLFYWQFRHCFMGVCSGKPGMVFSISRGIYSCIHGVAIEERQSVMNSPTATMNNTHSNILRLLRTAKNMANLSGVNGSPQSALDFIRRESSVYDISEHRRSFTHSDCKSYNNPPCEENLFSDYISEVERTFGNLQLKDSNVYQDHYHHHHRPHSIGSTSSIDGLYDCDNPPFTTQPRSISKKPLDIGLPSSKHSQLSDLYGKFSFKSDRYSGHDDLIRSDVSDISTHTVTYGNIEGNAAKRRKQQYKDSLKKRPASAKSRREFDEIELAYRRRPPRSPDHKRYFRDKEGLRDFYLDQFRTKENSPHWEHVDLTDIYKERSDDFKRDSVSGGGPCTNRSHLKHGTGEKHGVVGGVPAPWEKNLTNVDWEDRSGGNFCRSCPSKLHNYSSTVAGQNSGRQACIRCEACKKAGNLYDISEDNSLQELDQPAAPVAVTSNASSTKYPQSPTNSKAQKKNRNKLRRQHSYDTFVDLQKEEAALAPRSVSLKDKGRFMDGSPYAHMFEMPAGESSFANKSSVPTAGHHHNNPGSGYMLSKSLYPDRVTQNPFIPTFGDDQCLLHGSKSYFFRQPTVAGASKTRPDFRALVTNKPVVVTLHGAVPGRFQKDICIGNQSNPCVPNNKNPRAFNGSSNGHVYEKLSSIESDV
# recorded conditions: GluN2B F176Y, maximum inhibition fixed to wildtype value
# unit: % | format: bare number

Consider the reported A2, fixed-to-wildtype (*) for these compounds:
CC(C(O)c1ccc(O)cc1)N1CCC(Cc2ccccc2)CC1 (stereo not shown) [ifenprodil, reference compound]
94
C[C@@H]1[C@H](O)c2ccc(O)cc2CCN1CCCCc1ccccc1 [compound 2]
97
Oc1ccc2c(c1)CCN(CCCCc1ccccc1)C[C@@H]2O [compound (R)-1]
93

The compound listed as Oc1ccc2c(c1)CCN(CCCCc1ccccc1)C[C@H]2O [compound (S)-1] shows A2, fixed-to-wildtype (*) equal to 95

---

# assayed target: GluN1-1a/GluN2B NMDAR (wildtype) (Rattus norvegicus, UniProt P35439+Q00960)
# Sequence (Q00960 27-1482, other chains not shown): as the sequence (Q00960 27-1482, other chains not shown) above
# Type: cell-based
# recorded conditions: TEVC, holding potential −70 mV, 10 µM glycine and 10 µM (S)-glutamate, wildtype; read-out: IC50 ± SE
Below, each entry is listed with its recorded IC50.
Use µM as the unit, but write only the number.

Past entries and their recorded results:
COc1ccc2c(c1)CCN(CCCCc1ccccc1)CC2O (stereo not shown)
1.3
Oc1ccc2c(c1)CCN([C@H]1CC[C@@H](c3ccccc3)CC1)CC2O (stereo partly shown)
7.21
Oc1ccc2c(c1)CCN(CCCCc1ccccc1)CC2O (racemic)
0.094
Oc1ccc2c(c1)CCN([C@H]1CC[C@H](c3ccccc3)CC1)CC2O (stereo partly shown)
2.63
Oc1ccc2c(c1)CCN(CCCCc1ccccc1)CC2
3.37

Consider Oc1ccc2c(c1)CCN(CCCCc1ccccc1)C[C@@H]2O [compound (R)-1] . Its measured IC50 is 0.053

The recorded IC50 for entry Oc1ccc2c(c1)CCN(CCCCc1ccccc1)C[C@H]2O [compound (S)-1] equals 0.206

---

// values below are reported IC50
# assayed target: GluN1-1a Y109S/GluN2B WT (Rattus norvegicus, UniProt P35439+Q00960, Y109S)
# method: cell-based
Write the value in nM as a bare number.

Oc1ccc2c(c1)CCN(CCCCc1ccccc1)C[C@H]2O [compound (S)-1] yielded IC50 of 764

Reported IC50 ( Oc1ccc2c(c1)CCN(CCCCc1ccccc1)C[C@@H]2O [compound (R)-1] ) = 20

Input "C[C@@H]1[C@H](O)c2ccc(O)cc2CCN1CCCCc1ccccc1" . Output IC50: 140

---

p (slope) values, listed per item
# assayed target: GluN1-1a WT/GluN2B Q110A (Rattus norvegicus, UniProt P35439+Q00960, Q110A)
# Sequence (Q00960 27-1482 Q110A, other chains not shown): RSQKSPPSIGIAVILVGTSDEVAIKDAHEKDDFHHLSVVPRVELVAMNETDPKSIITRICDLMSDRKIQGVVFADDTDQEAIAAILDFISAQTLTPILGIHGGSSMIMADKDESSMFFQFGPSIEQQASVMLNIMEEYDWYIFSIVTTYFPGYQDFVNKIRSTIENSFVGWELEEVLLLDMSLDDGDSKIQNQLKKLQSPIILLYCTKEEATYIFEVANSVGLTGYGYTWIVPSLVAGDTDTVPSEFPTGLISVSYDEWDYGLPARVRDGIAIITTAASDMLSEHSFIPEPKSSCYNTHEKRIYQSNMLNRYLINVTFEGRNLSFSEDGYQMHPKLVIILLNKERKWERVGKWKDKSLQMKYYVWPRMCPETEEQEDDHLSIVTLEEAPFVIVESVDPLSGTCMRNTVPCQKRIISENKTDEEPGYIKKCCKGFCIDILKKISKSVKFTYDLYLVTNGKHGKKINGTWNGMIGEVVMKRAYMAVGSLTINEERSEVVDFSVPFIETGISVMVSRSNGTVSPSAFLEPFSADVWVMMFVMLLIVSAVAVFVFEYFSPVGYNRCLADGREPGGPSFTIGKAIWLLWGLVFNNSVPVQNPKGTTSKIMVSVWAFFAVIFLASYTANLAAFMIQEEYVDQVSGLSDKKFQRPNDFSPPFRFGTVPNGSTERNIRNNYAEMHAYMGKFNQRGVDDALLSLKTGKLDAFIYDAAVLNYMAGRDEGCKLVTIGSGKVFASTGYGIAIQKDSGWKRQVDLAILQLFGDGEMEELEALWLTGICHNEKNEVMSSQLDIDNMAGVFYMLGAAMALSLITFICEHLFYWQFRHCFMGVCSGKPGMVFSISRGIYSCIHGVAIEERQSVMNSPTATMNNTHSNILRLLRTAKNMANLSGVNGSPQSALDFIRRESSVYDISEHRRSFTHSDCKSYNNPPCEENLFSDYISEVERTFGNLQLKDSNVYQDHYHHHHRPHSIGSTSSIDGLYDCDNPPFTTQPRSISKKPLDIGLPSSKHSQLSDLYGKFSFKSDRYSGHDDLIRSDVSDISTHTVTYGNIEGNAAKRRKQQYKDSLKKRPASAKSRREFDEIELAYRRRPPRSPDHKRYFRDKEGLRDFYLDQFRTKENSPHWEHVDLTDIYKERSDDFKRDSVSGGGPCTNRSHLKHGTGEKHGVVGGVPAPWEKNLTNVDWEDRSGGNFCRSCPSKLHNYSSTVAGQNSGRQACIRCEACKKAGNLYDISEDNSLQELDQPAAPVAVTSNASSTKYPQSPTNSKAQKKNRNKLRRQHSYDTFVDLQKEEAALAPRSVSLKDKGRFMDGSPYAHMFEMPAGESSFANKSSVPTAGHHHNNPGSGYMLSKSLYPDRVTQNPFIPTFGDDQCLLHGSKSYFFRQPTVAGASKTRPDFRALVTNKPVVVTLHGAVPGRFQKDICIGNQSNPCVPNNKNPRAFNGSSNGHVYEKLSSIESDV
# recorded conditions: GluN2B Q110A
Just the number, please.

Worked cases, p (slope) given:
Oc1ccc2c(c1)CCN(CCCCc1ccccc1)C[C@H]2O [compound (S)-1]
1.27
C[C@@H]1[C@H](O)c2ccc(O)cc2CCN1CCCCc1ccccc1 [compound 2]
1.79
Oc1ccc2c(c1)CCN(CCCCc1ccccc1)C[C@@H]2O [compound (R)-1]
2.18

Record CC(C(O)c1ccc(O)cc1)N1CCC(Cc2ccccc2)CC1 (stereo not shown) [ifenprodil, reference compound] . Reported p (slope): 0.64

---

Collected pIC50 values appear next to each entry.
# assayed target: GluN1-1a L135N/GluN2B WT (Rattus norvegicus, UniProt P35439+Q00960, L135N)
# method: cell-based
pIC50 is defined as minus the log10 of a concentration measured in mol/L.

// Oc1ccc2c(c1)CCN(CCCCc1ccccc1)C[C@@H]2O [compound (R)-1] : pIC50 value = 6.53

Briefly, pIC50 measured for Oc1ccc2c(c1)CCN(CCCCc1ccccc1)C[C@H]2O [compound (S)-1] : 5.44

// field: pIC50; key: C[C@@H]1[C@H](O)c2ccc(O)cc2CCN1CCCCc1ccccc1 [compound 2] ; value = 6.08

---

# assayed target: GluN1-1a WT/GluN2B Q110A (Rattus norvegicus, UniProt P35439+Q00960, Q110A)
# recorded conditions: GluN2B Q110A, flexible A2
attribute measured: A2 ± SE (%)
# value in %; strip the unit string

Use the examples below as a reference point.
CC(C(O)c1ccc(O)cc1)N1CCC(Cc2ccccc2)CC1 (stereo not shown) [ifenprodil, reference compound]
98
C[C@@H]1[C@H](O)c2ccc(O)cc2CCN1CCCCc1ccccc1
95
Oc1ccc2c(c1)CCN(CCCCc1ccccc1)C[C@@H]2O [compound (R)-1]
91

Here's the next entry for you.
# A2 ± SE (molecule: Oc1ccc2c(c1)CCN(CCCCc1ccccc1)C[C@H]2O [compound (S)-1] ) is 94

---

# assayed target: GluN1-1a S132A/GluN2B WT (Rattus norvegicus, UniProt P35439+Q00960, S132A)
# recorded conditions: GluN1-1a S132A, flexible A2
attribute measured: A2 ± SE (%)
Report as a plain number; the unit % is understood.

Examples with answers:
CC(C(O)c1ccc(O)cc1)N1CCC(Cc2ccccc2)CC1 (stereo not shown) [ifenprodil, reference compound]
89
Oc1ccc2c(c1)CCN(CCCCc1ccccc1)C[C@@H]2O [compound (R)-1]
92
Oc1ccc2c(c1)CCN(CCCCc1ccccc1)C[C@H]2O [compound (S)-1]
89

Consider now this further molecule.
Form field A2 ± SE, entry "C[C@@H]1[C@H](O)c2ccc(O)cc2CCN1CCCCc1ccccc1" : 100

---

# assayed target: GluN1-1a WT/GluN2B E236A (Rattus norvegicus, UniProt P35439+Q00960, E236A)
# method: cell-based
attribute measured: pIC50
// pIC50: -log10(molar conc.)

Oc1ccc2c(c1)CCN(CCCCc1ccccc1)C[C@@H]2O [compound (R)-1]
6.71

Looking up "C[C@@H]1[C@H](O)c2ccc(O)cc2CCN1CCCCc1ccccc1" , I found its pIC50 recorded as 6.97

---

# assayed target: GluN1-1a WT/GluN2B F114A (Rattus norvegicus, UniProt P35439+Q00960, F114A)
# recorded conditions: GluN2B F114A, maximum inhibition fixed to wildtype value
attribute measured: A2, fixed-to-wildtype (*) (%)
Kindly provide the numeric value in % only, without the unit symbol.

Worked cases, A2, fixed-to-wildtype (*) given:
Oc1ccc2c(c1)CCN(CCCCc1ccccc1)C[C@@H]2O [compound (R)-1]
93
Oc1ccc2c(c1)CCN(CCCCc1ccccc1)C[C@H]2O [compound (S)-1]
95
C[C@@H]1[C@H](O)c2ccc(O)cc2CCN1CCCCc1ccccc1
97

For this compound ( CC(C(O)c1ccc(O)cc1)N1CCC(Cc2ccccc2)CC1 (stereo not shown) [ifenprodil, reference compound] ), measured A2, fixed-to-wildtype (*) is 94

---

# assayed target: GluN1-1a WT/GluN2B F176A (Rattus norvegicus, UniProt P35439+Q00960, F176A)
# method: cell-based
attribute measured: IC50 (µM)
Field: numeric (µM). Do not append units.

C[C@@H]1[C@H](O)c2ccc(O)cc2CCN1CCCCc1ccccc1 [compound 2] has a reported IC50 of 1.81

// field: IC50; key: Oc1ccc2c(c1)CCN(CCCCc1ccccc1)C[C@H]2O [compound (S)-1] ; value = 15.5

IC50 for Oc1ccc2c(c1)CCN(CCCCc1ccccc1)C[C@@H]2O [compound (R)-1] is 105
